system: A549; assay: Cytotoxicity against NCI tumor panel, A-549/ATCC non small-cell lung cancer cell line; type: functional, cell-based; settings: Homo sapiens
OBSERVABLE: pIC50
Just the number, please; pIC50 means minus log10 of the concentration in mol/L.

Request - read-out pIC50 | tested on A549 | compound CC(=O)Nc1ccc2[nH]c(C(=O)Nc3ccc4[nH]c(C(=O)N5CC(CCl)c6c5cc(O)c5ccccc65)cc4c3)cc2c1 (stereo unspecified)
8.83

====

test system: M14; assay: Cytotoxicity against NCI tumor panel, M14 melanoma cancer cell line; type: functional, cell-based; settings: Homo sapiens
OBSERVABLE: IC50 (nM)
Form entry: value (nM) — number only.

Report IC50 for CC(=O)Nc1ccc2[nH]c(C(=O)Nc3ccc4[nH]c(C(=O)N5CC(CCl)c6c5cc(O)c5ccccc65)cc4c3)cc2c1 (stereo unspecified) please.
1.48

====

tested on: UO-31; assay: Cytotoxicity against NCI tumor panel, U031 renal cancer cell line; assay type: functional, cell-based; details: Homo sapiens
OBSERVABLE: IC50 (nM)
Numbers only here, please. The scale is nM.

What IC50 value was documented for this compound, CC(=O)Nc1ccc2[nH]c(C(=O)Nc3ccc4[nH]c(C(=O)N5CC(CCl)c6c5cc(O)c5ccccc65)cc4c3)cc2c1 (stereo unspecified) ?
4.05

====

test system: CAKI-1; assay: Cytotoxicity against NCI tumor panel, CAKI-1 renal cancer cell line; type: functional, cell-based; conditions: Homo sapiens
OBSERVABLE: IC50 (nM)
Kindly provide the numeric value in nM only, without the unit symbol.

I would be grateful if you could share the reported IC50 for CC(=O)Nc1ccc2[nH]c(C(=O)Nc3ccc4[nH]c(C(=O)N5CC(CCl)c6c5cc(O)c5ccccc65)cc4c3)cc2c1 (stereo unspecified) .
4.27

====

tested on: NCI-H522; assay: Cytotoxicity against NCI tumor panel, NCI-H522 non small-cell lung cancer cell line; format: functional, cell-based; conditions: Homo sapiens
OBSERVABLE: IC50 (nM)
Only the number, expressed in nM, is required.

Lab request: please report IC50 under test system NCI-H522 for CC(=O)Nc1ccc2[nH]c(C(=O)Nc3ccc4[nH]c(C(=O)N5CC(CCl)c6c5cc(O)c5ccccc65)cc4c3)cc2c1 (stereo unspecified)
0.238

====

tested on: K562; experiment: Cytotoxicity against NCI tumor panel, K-562 leukemia cell line; assay type: functional, cell-based; details: Homo sapiens
OBSERVABLE: IC50 (nM)
Express your answer in nM, writing the number without its unit.

Could you tell me which IC50 is on file for CC(=O)Nc1ccc2[nH]c(C(=O)Nc3ccc4[nH]c(C(=O)N5CC(CCl)c6c5cc(O)c5ccccc65)cc4c3)cc2c1 (stereo unspecified) ?
3.76

====

tested on: MOLT-4; test: Cytotoxicity against NCI tumor panel, MOLT-4 leukemia cell line; format: functional, cell-based; settings: Homo sapiens
OBSERVABLE: IC50 (nM)
# unit: nM | format: bare number

Name the recorded IC50 for CC(=O)Nc1ccc2[nH]c(C(=O)Nc3ccc4[nH]c(C(=O)N5CC(CCl)c6c5cc(O)c5ccccc65)cc4c3)cc2c1 (stereo unspecified) .
0.375

====

tested on: NCI/ADR-RES; assay: Cytotoxicity against NCI tumor panel, NCI/ADR-RES breast cancer cell line; type: functional, cell-based; details: Homo sapiens
OBSERVABLE: pIC50
Quick note: pIC50 values are minus log10 of concentrations in mol/L.

Please look up its pIC50: CC(=O)Nc1ccc2[nH]c(C(=O)Nc3ccc4[nH]c(C(=O)N5CC(CCl)c6c5cc(O)c5ccccc65)cc4c3)cc2c1 (stereo unspecified)
8.07
